- Test system: MALME-3M melanoma
- assay.info: NCI tumour cell line growth inhibition, 48 h
measurement.label: TGI

Worked cases, answers included:
C#CC(O)/C=C/C(O)CCCC(O)CC#CC(O)C#CCCCCC(O)/C=C/CCCCCC(=O)CCCCCCCCCCCCCC(O)C(O)C#CC(=O)O (stereo not given) ... > 25 µM
Cc1ccc(/C=C(/C#N)n2nnc3cccc(F)c32)cc1 ... 17.6 µM

In: Any idea what its TGI is? The molecule is O=C(Nc1ccc(C(F)(F)F)cc1[N+](=O)[O-])C(=O)Nn1c(=S)[nH]c2ccccc2c1=O
Out: > 100 µM

In: Entry CCN(CC)CC(C(C)=O)C(c1ccccc1)c1c(O)c2ccccc2oc1=O (stereo not given) please
Out: > 100 µM

In: And then COC(=O)NC1=Nc2ccccc2C(=O)NN1 , what is it?
Out: > 100 µM

* * *

- Test system: NCI/ADR-RES ovarian
- assay.info: NCI tumour cell line growth inhibition, 48 h
measurement.label: GI50

CN1CCN(CCCCCOc2cc(O)c3c(=O)cc(-c4ccccc4)oc3c2)CC1 ... 14.9 µM

Please turn your attention to the following entry.
In: So what's the measured GI50 for this one? Nc1ncc(-c2ccc3ncnc(N4CCc5cc(F)c(Cl)cc54)c3c2)cc1C=O
Out: 2.82 µM

* * *

Each record here notes measured TGI.
- Tested on: CAKI-1 renal
- assay.info: NCI tumour cell line growth inhibition, 48 h

In: Please give the measured TGI for this compound: Cc1c(N)c(C#N)c2n(C)c3ncccc3n2c1=O
Out: > 100 µM

In: Then what about the compound O=C(Nc1ccc(Nc2ccc(NC(=O)c3ccccc3)c3c2C(=O)c2ccccc2C3=O)c2c1C(=O)c1ccccc1C2=O)c1ccccc1 ?
Out: > 100 µM

In: Can you handle Cc1c(CN2CCOCC2)c(CN2CCOCC2)c(C)n1-c1ccc(Cl)cn1 next?
Out: > 100 µM

In: Also, C/C(=N\O)C1CC(CC(=O)O)C1(C)C (stereo unspecified) please.
Out: > 100 µM

In: What do you have for CN1C(=O)[C@@H](CC2CCCC2)N(C2CCCC2)c2nc(Nc3cc(Cl)c(O)c(Cl)c3)ncc21 ?
Out: > 100 µM

In: Next entry: COc1ccc(-c2cc(-c3ccc(Cl)cc3)nc(SCCCC(=O)NO)n2)cc1OC
Out: 1.54 µM

In: Follow-up item: O=C1CC(=O)NC(=NN2C(=O)CSC2c2ccc(Cl)cc2)N1 (stereo unspecified)
Out: > 100 µM

In: // same read-out, input: CN(C)Cc1ccc(O)c(CN(C)C)n1
Out: > 100 µM

In: Let us now turn to CCCCNC(=O)CC1=C(C)/C(=C/c2[nH]c(-c3ccc[nH]3)cc2OC)N=C1C
Out: 9.3 µM

In: Now consider CN1CCOC1(C)c1ccccc1 (stereo unspecified) .
Out: > 100 µM

In: Param item: CCOC(=O)CCCc1cc(=O)c2c(C)c3[nH]c4ccc(Cl)cc4c3c(C)c2[nH]1
Out: 43.2 µM

* * *

- Tested on: SK-MEL-5 melanoma
- assay.info: NCI tumour cell line growth inhibition, 48 h; in the data active means GI50 below about 0.43 µM; inactive means the rest
Write down the outcome that applies. Available outcomes: T = active, F = inactive

These recorded examples may help you get a feel for the data.
CC(=O)CCC[C@@H](C)[C@@H]1O[C@H]([C@@]2(C)CCC(=O)O2)CC2[C@H]1OC(=O)C21CC1 (some centres not stated) ... F
CCCCCCCCCCCCCCCC(=O)OCC1OC(OCCCC)[C@H](O[C@@H]2OC(C)C(OC(=O)CCC)C(O)C2O)C(O)C1O (some centres not stated) ... F
C=C1CC[C@@](C)(c2cc(Br)c(C)cc2OC(C)=O)[C@H]1C ... F
Cn1cc(Nc2nccc(-c3ccc4c(c3)CN(C3COC3)CC[C@H]4NC(=O)c3cn(C(C)(C)C)nn3)n2)cn1 ... F
Cc1cc(NS(=O)(=O)c2ccc(-c3cnc(C4CC4)o3)cc2)ccc1Cl ... T

In: Recorded test call requested for O=C(O)C1CC[N-]CC1.O=C(O)C1CC[N-]CC1.[NH2-].[NH2-].[Pt+4]
Out: F

In: Repeat with Cc1c(Br)c(Br)c2c3c1nc(N1CCNCC1)n3CCC2
Out: F

In: Check CCN(CC)Cc1cc(Nc2ccnc3ccc(OC)cc23)ccc1O too.
Out: F

In: Further, for CCN1C[C@@H](C)n2c(c(O)c3c(=O)n(Cc4ccc(F)c(Cl)c4)nc(C(=O)NC)c32)C1=O ?
Out: F
